src = PubChem BioAssay

# protocol.summary: caspase-8 TRAIL sensitization, hit retest, confirmation, cell-based, NB7+caspase-8, with/without TRAIL, luminescence panel (AID 651596)
# condition: NB7 neuroblastoma + caspase-8, without TRAIL, luminescence viability, without TRAIL, mean of runs, at 10 µM
Grouping key: activity. Bins: low bin: < 60%; mid bin: ≥ 60% and < 70%; high bin: ≥ 70%

| molecule | label.class |
| --- | --- |
| O=C(Nc1ccc2c(c1)OCO2)N1CCN(Cc2ccco2)CC1 | high bin |
| O=C(Cn1ncc(Cl)c(Cl)c1=O)c1ccc2c(c1)OCCO2 | high bin |
| CCOC(=O)c1nn(-c2ccc3c(c2)OCCO3)cc1O | low bin |
| O=C(/C=C/c1ccccc1Cl)Nc1cccc(O)c1 | low bin |
| Cc1ccc2nc(-c3ccccn3)oc2c1 | mid bin |
| O=C1CCC(=O)N1c1ccc(-c2nc3ccccc3s2)cc1 | low bin |
| O=c1[nH]c(Nc2nc3ccccc3o2)nc2c1CCCC2 | low bin |
| COc1cccc(C(=O)/C=C2\Sc3ccccc3N2C)c1 | low bin |
| Cc1ccc(C(=O)Nc2nc3ccccc3c(=O)s2)cc1 | high bin |
| O=C(Nc1nc2ccccc2n1CCN1CCCCC1)C1CCCCC1 | low bin |
| CCCCCCCCCCCCCCC(O)C[N+](C)(CCO)CCO (configuration not stated) | high bin |
| O=C(CSc1nnc(-c2ccccc2)o1)Nc1ccccc1F | low bin |
| CSc1ccc(/C=C/C(=O)NC(=O)c2ccccc2O)cc1 | high bin |
| O=C(Nc1cccc(O)c1)c1noc2c1CCc1ccccc1-2 | mid bin |
| O=C1N(c2ccccc2)CCN1c1ccccc1 | mid bin |
| CC(/C=N/NC(=O)c1nn(C)c(C)c1Br)=C\c1ccccc1 | high bin |
| O=C(Nc1ccc2c(c1)OCCO2)NC1CCCCC1 | low bin |
| COc1ccc(-c2nsc3c(N4CCCCC4C)ncnc23)cc1 (configuration not stated) | high bin |
| COC(=O)c1c(NC(=O)c2ccc([N+](=O)[O-])o2)sc2c1CCN(C(C)C)C2 | high bin |

---

The entries below are paired with their reported activity.
# protocol.summary: caspase-8 TRAIL sensitization, hit retest, confirmation, cell-based, NB7+caspase-8, with/without TRAIL, luminescence panel (AID 651596)
# condition: NB7 neuroblastoma + caspase-8, without TRAIL, luminescence viability, without TRAIL, mean of runs, at 10 µM
value.type: activity (%)

| molecule | measurement.units | number |
| --- | --- | --- |
| Cc1ccccc1Nc1nc(N)c2ccccc2n1 | % | 59.8 |
| Cc1cccc(NC(=S)NNC(=O)c2ccc3c(c2)OCO3)c1 | % | 49.8 |
| COc1ccc(C2NN=C(c3ccc(C)cc3)S2)cc1OC (configuration not stated) | % | 55 |
| O=S1(=O)N=C(Nc2nc3c(s2)CCCC3)c2ccccc21 | % | 81.4 |
| CCCCN(C)C(=O)c1cc2cc3ccc(OC)cc3nc2s1 | % | 70.3 |
| CCc1nn2cc(-c3ccccc3)nc2s1 | % | 78.6 |
| Cc1ccc(-c2nnc(Nc3ccccc3)o2)cc1 | % | 54.5 |
| Cc1cc(NC(=O)/C=C/c2ccccc2Cl)n(-c2nc3ccccc3[nH]2)n1 | % | 82.4 |
| Cc1ccc(N2Cc3ccccc3C2=O)cc1 | % | 59.3 |
| Cc1nc2c(-c3ccccc3)cnn2c(N)c1-c1ccccc1 | % | 90.9 |
| COc1cccc(CSc2nc3ccncc3[nH]2)c1 | % | 88.4 |
| CCCC(=O)N1CCN(c2ccc(NC(=O)c3cc4ccccc4o3)cc2Cl)CC1 | % | 58.6 |
